Measured log10 IC50, listed per entry for reference.
# target entity: human 5-HT6 receptor (Homo sapiens)
# Sequence (P50406 whole entry): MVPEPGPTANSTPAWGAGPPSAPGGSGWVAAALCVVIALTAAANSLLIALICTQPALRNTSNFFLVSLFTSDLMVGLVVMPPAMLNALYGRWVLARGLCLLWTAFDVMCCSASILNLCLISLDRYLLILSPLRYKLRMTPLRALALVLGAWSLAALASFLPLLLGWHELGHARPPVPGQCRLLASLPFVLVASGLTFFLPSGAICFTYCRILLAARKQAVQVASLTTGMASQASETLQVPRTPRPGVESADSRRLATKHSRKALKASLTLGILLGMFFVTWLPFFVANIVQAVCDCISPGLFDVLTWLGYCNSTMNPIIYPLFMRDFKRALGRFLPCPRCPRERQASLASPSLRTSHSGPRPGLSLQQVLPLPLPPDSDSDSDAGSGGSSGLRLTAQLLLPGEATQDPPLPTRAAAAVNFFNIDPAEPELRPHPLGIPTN
# protocol summary: 5-HT6 receptor intrinsic activity assay (inhibition of 5-HT induced increase in cAMP in HEK293/5-HT6 cells)
# condition: read-out: Antagonist potency at the human 5-HT6 receptor, IC50,corr
Structures can show the parent of a compound that is named as a salt.
readout label: log10 IC50 (log10 of the value in nM)

compound	log10 IC50
COc1ccc(C)cc1OS(=O)(=O)c1cc(CN2CCCNCC2)c2occc2c1 [Example 18, trifluoroacetate]	2.69
COc1cccc(OS(=O)(=O)c2cc(N3CCN[C@H](C)C3)c3occc3c2)c1OC [Example 9, trifluoroacetate]	1.69
O=S(=O)(Oc1ccccc1Cl)c1cc(N2CCNCC2)c2occc2c1 [Example 2, trifluoroacetate]	1.38
CN1CCN(c2cc(S(=O)(=O)Oc3cccnc3)cc3ccoc23)CC1 [Example 7, trifluoroacetate]	1.86
C[C@@H]1CN(Cc2cc(S(=O)(=O)Oc3ccccc3C(N)=O)cc3ccoc23)CCN1 [Example 16, bis(trifluoroacetate)]	2.30
COc1ccc(C)cc1OS(=O)(=O)c1cc(CN2CCN(C)CC2)c2occc2c1 [Example 5, bis(trifluoroacetate)]	1.69
